AC50 overview
tested on: 5-hydroxytryptamine receptor 1A (Homo sapiens, UniProt P08908); also: assay procedure not described here
Sequence (P08908 whole entry): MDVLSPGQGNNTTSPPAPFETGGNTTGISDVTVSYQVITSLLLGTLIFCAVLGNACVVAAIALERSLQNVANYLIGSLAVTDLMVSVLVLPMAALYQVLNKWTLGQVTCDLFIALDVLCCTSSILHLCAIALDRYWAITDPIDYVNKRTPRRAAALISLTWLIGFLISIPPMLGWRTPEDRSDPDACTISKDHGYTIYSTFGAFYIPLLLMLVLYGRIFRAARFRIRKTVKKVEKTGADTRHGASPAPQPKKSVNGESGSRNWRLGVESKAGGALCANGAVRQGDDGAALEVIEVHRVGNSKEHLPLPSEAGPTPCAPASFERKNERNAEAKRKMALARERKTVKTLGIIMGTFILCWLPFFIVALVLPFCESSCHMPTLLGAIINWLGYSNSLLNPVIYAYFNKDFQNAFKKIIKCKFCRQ
Assay type: functional, cell-based

Observed AC50 on 5-hydroxytryptamine receptor 1A (Homo sapiens, UniProt P08908) for O=S1(=O)CCN(CN2CCS(=O)(=O)NC2)CN1 , please.
> 30 µM

Same question for CCOc1cc([C@@H](CS(C)(=O)=O)N2C(=O)c3cccc(NC(C)=O)c3C2=O)ccc1OC please.
> 30 µM

# iterate: C[N+]12CCC(CC1)C(OC(=O)C(O)(c1ccccc1)c1ccccc1)C2 (centres undefined)
> 30 µM

Follow-up entry: COc1cc(C(=O)NS(=O)(=O)c2ccccc2C)ccc1Cc1cn(C)c2ccc(NC(=O)OC3CCCC3)cc12
> 10 µM

Another molecule: CCCNC(=O)NS(=O)(=O)c1ccc(Cl)cc1 [CHLORPROPAMIDE]
> 10 µM

Entry to check: COc1ccc([C@@H]2CC(=O)c3c(O)cc(O)cc3O2)cc1O
> 10 µM

Item: CO[C@H]1C[C@H](O[C@H]2CC[C@@]3(C)[C@H](CC[C@@H]4[C@@H]3CC[C@]3(C)[C@@H](C5=CC(=O)OC5)[C@@H](OC(C)=O)C[C@]43O)C2)O[C@@H](C)[C@@H]1O
> 30 µM

One more molecule: COc1cc(C(=O)NC2CCCNC2)cc(OC)c1OC (centres undefined) [TROXIPIDE]
> 30 µM

Similarly, C=CCN1CCc2nc(N)sc2CC1 [TALIPEXOLE] ?
> 30 µM

Moving on to the next molecule: CN1Cc2c(N)cccc2C(c2ccccc2)C1 (centres undefined)
> 30 µM

Input CCN1CC(CCN2CCOCC2)C(c2ccccc2)(c2ccccc2)C1=O (centres undefined)
> 30 µM

Same lookup for O=c1[nH]c2ccccc2n1CCCN1CCN(C(c2ccccc2)c2ccccc2)CC1 [OXATOMIDE] , please.
> 30 µM

Now the molecule O=C1c2cccc3c2[C@H](CCC3)CN1[C@@H]1CN2CCC1CC2
> 30 µM

Try C[C@]12CCC(=O)C[C@@H]1CC[C@@H]1[C@@H]2CC[C@]2(C)[C@@H](O)CC[C@@H]12 next.
> 30 µM
